Just for reference, ChEMBL document CHEMBL4689842 is where these values come from.

# maps each entry to its Population Apoptotic (%)
test system: U2OS; assay: Multiplex assay against U2OS; type: toxicity, cell-based; conditions: human, 24 h, 10 µM, compound concentration 10 uM, replicate 2
endpoint: Population Apoptotic (%)

| structure-smiles-string | meas-value |
| --- | --- |
| COc1ncc(-c2ccc3nccc(-c4ccnnc4)c3c2)cc1NS(=O)(=O)c1ccc(F)cc1F | 80 |
| CNc1nc(NCc2ccc(NS(C)(=O)=O)cc2Cl)cc(-c2ccccn2)n1 | 50 |
| Cc1c(-c2ccc(O)cc2)n(Cc2ccc(OCCN3CCCCCC3)cc2)c2ccc(O)cc12 | 68 |
| Cc1nc(-c2ccc(-c3ccc(C(=O)N4CCc5cc6c(cc54)C4(CCN(C)CC4)CO6)cc3)c(C)c2)no1 | 76 |

---

# maps each entry to its Population Normal (%)
system: U2OS; test: Multiplex assay against U2OS; assay type: toxicity, cell-based; conditions: human, 24 h, 10 µM, compound concentration 10 uM, replicate 1
endpoint: Population Normal (%)

| compound | endpoint | meas-value |
| --- | --- | --- |
| Cn1cc(-c2[nH]c3cc(NC(=O)[C@H](N)C4CCCCC4)cc4c3c2C=NNC4=O)cn1 | Population Normal (%) | 91 |
| CN(C)C(=O)N[C@H]1CC[C@H](CCN2CCN(c3cccc(Cl)c3Cl)CC2)CC1.Cl [CARIPRAZINE HYDROCHLORIDE] | Population Normal (%) | 86 |
| CCN(CC)CCCCNc1ncc2cc(-c3cc(OC)cc(OC)c3)c(NC(=O)NC(C)(C)C)nc2n1 | Population Normal (%) | 82 |
| Cc1c(-c2ccc(O)cc2)n(Cc2ccc(OCCN3CCCCCC3)cc2)c2ccc(O)cc12 | Population Normal (%) | 95 |

---

test system: HEK-293T; experiment: Multiplex assay against HEK293T; type: toxicity, cell-based; settings: human, 12 h, 10 µM, compound concentration 10 uM, replicate 1
# maps each entry to its Population Mitotic Cells (%)
endpoint: Population Mitotic Cells (%)

| compound | target-of-assay | endpoint | measure-unit | meas-value |
| --- | --- | --- | --- | --- |
| CNc1nc(NCc2ccc(NS(C)(=O)=O)cc2Cl)cc(-c2ccccn2)n1 | HEK-293T | Population Mitotic Cells (%) | % | 39 |
| CN(C)CC#Cc1ccc(OCCCc2sc(N3CCc4cccc(C(=O)Nc5nc6ccccc6s5)c4C3)nc2C(=O)O)c(F)c1 | HEK-293T | Population Mitotic Cells (%) | % | 59 |
| COc1cc(-n2cnc3cc(-c4ccc(Cl)cc4)sc3c2=O)ccc1OCCN1CCCC1 | HEK-293T | Population Mitotic Cells (%) | % | 42 |
| CN(C)C(=O)/C(C#N)=C/c1ccc(-c2nc3cnc4[nH]ccc4c3n2C2CCCCC2)o1 | HEK-293T | Population Mitotic Cells (%) | % | 58 |
| Cn1cc(-c2[nH]c3cc(NC(=O)[C@H](N)C4CCCCC4)cc4c3c2C=NNC4=O)cn1 | HEK-293T | Population Mitotic Cells (%) | % | 35 |
| Cc1nc(-c2ccc(-c3ccc(C(=O)N4CCc5cc6c(cc54)C4(CCN(C)CC4)CO6)cc3)c(C)c2)no1 | HEK-293T | Population Mitotic Cells (%) | % | 12 |
| CN(C)C(=O)N[C@H]1CC[C@H](CCN2CCN(c3cccc(Cl)c3Cl)CC2)CC1.Cl [CARIPRAZINE HYDROCHLORIDE] | HEK-293T | Population Mitotic Cells (%) | % | 14 |
| OC1(c2ccc(Cl)cc2)CCN(Cc2c[nH]c3ccccc23)CC1 | HEK-293T | Population Mitotic Cells (%) | % | 29 |
| Cc1nc(-c2cn3c(n2)-c2ccc(-c4cnn(C(C)(C)C(N)=O)c4)cc2OCC3)n(C(C)C)n1 | HEK-293T | Population Mitotic Cells (%) | % | 82 |
| CN1CCCC(n2nc(Cc3ccc(Cl)cc3)c3ccccc3c2=O)CC1.Cl (centres undefined) [AZELASTINE HYDROCHLORIDE] | HEK-293T | Population Mitotic Cells (%) | % | 17 |
| CC(C)(O)CNc1ncc(-c2ccnc(Nc3ccnc(Cl)c3)n2)c(CC2CC2)n1 | HEK-293T | Population Mitotic Cells (%) | % | 27 |
| Cc1[nH]c(/C=C2\C(=O)Nc3ccc(S(=O)(=O)N(C)c4cccc(Cl)c4)cc32)c(C)c1C(=O)N1CCN(C)CC1 | HEK-293T | Population Mitotic Cells (%) | % | 32 |
| C=CC(=O)Nc1cccc(C(=O)Nc2ccc(Nc3cc(-c4[nH]c(SC)nc4C)ccn3)cc2)c1 | HEK-293T | Population Mitotic Cells (%) | % | 51 |
| Cl.N#Cc1ccc2[nH]cc(CCCCN3CCN(c4ccc5oc(C(N)=O)cc5c4)CC3)c2c1 [VILAZODONE HYDROCHLORIDE] | HEK-293T | Population Mitotic Cells (%) | % | 6 |
| CC[C@H](C)C(=O)O[C@H]1C[C@@H](C)C=C2C=C[C@H](C)[C@H](CC[C@@H]3C[C@@H](O)CC(=O)O3)[C@H]21 | HEK-293T | Population Mitotic Cells (%) | % | 52 |
| C[C@@H](NCCCc1cccc(C(F)(F)F)c1)c1cccc2ccccc12.Cl [CINACALCET HYDROCHLORIDE] | HEK-293T | Population Mitotic Cells (%) | % | 12 |
| c1cn2cc(-c3ccc4cn[nH]c4c3)nc(Nc3ccc(N4CCOCC4)cc3)c2n1 | HEK-293T | Population Mitotic Cells (%) | % | 58 |
| CC(C)NCC(O)COc1ccc(CCOCC2CC2)cc1.Cl (centres undefined) [BETAXOLOL HYDROCHLORIDE] | HEK-293T | Population Mitotic Cells (%) | % | 44 |
| COc1cc2nccc(Oc3ccc(NC(=O)Nc4cc(C)on4)c(Cl)c3)c2cc1OC.O | HEK-293T | Population Mitotic Cells (%) | % | 17 |
| Cc1nc(Nc2n[nH]c3c2CN(C(=O)N[C@H](CN(C)C)c2ccccc2)C3(C)C)c2sccc2n1 | HEK-293T | Population Mitotic Cells (%) | % | 72 |
| O=C1NCN(c2ccccc2)C12CCN(CCCOc1ccc(F)cc1)CC2 [SPIRAMIDE] | HEK-293T | Population Mitotic Cells (%) | % | 33 |
| C=CC(=O)Nc1cc2c(Nc3ccc(F)c(Cl)c3)ncnc2cc1OCCCN1CCOCC1.Cl.Cl [CANERTINIB DIHYDROCHLORIDE] | HEK-293T | Population Mitotic Cells (%) | % | 71 |
| O=C(NCCN1CCOCC1)c1ccc2c(c1)C(=O)c1ccc(Nc3ccc(F)c(NC(=O)c4ccccc4)c3)cc1CC2 | HEK-293T | Population Mitotic Cells (%) | % | 65 |

---

system: HEK-293T; test: Multiplex assay against HEK293T; type: toxicity, cell-based; settings: human, 48 h, 10 µM, compound concentration 10 uM, replicate 1
# maps each entry to its Population Normal (%)

| molecule | Population Normal (%) |
| --- | --- |
| c1cn2cc(-c3ccc4cn[nH]c4c3)nc(Nc3ccc(N4CCOCC4)cc3)c2n1 | 74 |
| CCn1c(=O)c(-c2ccc(Cl)cc2Cl)cc2cnc(Nc3ccc(N4CCNCC4)c(F)c3)nc21 | 43 |
| C[C@@H](NCCCc1cccc(C(F)(F)F)c1)c1cccc2ccccc12.Cl [CINACALCET HYDROCHLORIDE] | 81 |
| CC(C)(O)CNc1ncc(-c2ccnc(Nc3ccnc(Cl)c3)n2)c(CC2CC2)n1 | 71 |
| C=CC(=O)Nc1ccc2ncnc(Nc3ccc(OCc4cccc(F)c4)c(Cl)c3)c2c1.Cc1ccc(S(=O)(=O)O)cc1 | 87 |
| NC(=O)Nc1cc(-c2cccc(F)c2)sc1C(=O)N[C@H]1CCCNC1 | 78 |
| CN(C)C(=O)/C(C#N)=C/c1ccc(-c2nc3cnc4[nH]ccc4c3n2C2CCCCC2)o1 | 65 |
| Cc1nc(-c2ccc(-c3ccc(C(=O)N4CCc5cc6c(cc54)C4(CCN(C)CC4)CO6)cc3)c(C)c2)no1 | 73 |
| CCOCCn1cc(C(=O)Nc2ccc(-n3nc(-c4cccnc4)cc3C(F)(F)F)cn2)ccc1=O | 82 |
| CN1CCC[C@@H]1CCO[C@](C)(c1ccccc1)c1ccc(Cl)cc1.O=C(O)/C=C/C(=O)O [CLEMASTINE FUMARATE] | 76 |
| CN(C)C(=O)N[C@H]1CC[C@H](CCN2CCN(c3cccc(Cl)c3Cl)CC2)CC1.Cl [CARIPRAZINE HYDROCHLORIDE] | 84 |
| Cc1csc2c(N[C@@H](C)CN3CCN(S(=O)(=O)c4ccc(Cl)c(Cl)c4)CC3)ncnc12 | 82 |
| CN1CCN(CCOc2cc(OC3CCOCC3)c3c(Nc4c(Cl)ccc5c4OCO5)ncnc3c2)CC1 | 73 |
| COc1ncc(-c2ccc3nccc(-c4ccnnc4)c3c2)cc1NS(=O)(=O)c1ccc(F)cc1F | 78 |
| CN(C)CC#Cc1ccc(OCCCc2sc(N3CCc4cccc(C(=O)Nc5nc6ccccc6s5)c4C3)nc2C(=O)O)c(F)c1 | 88 |
| Cl.N#Cc1ccc2[nH]cc(CCCCN3CCN(c4ccc5oc(C(N)=O)cc5c4)CC3)c2c1 [VILAZODONE HYDROCHLORIDE] | 83 |
